IC50 overview
- Test system: Triple negative breast cancer cell line CAL51
- testName: Cell Titer Glo proliferation assay, CAL51
- Assay type: cell-based
- assaySetup: Homo sapiens, CAL-51; CAL51 cell proliferation (Table 1); read-out: Act. Level

Completed entries (count: 10):
>  <compound>
COc1cc(C(=O)N(C)C)ncc1Nc1nc(OC)c2c(-c3ccnc(F)c3)c[nH]c2n1 [Example 415]

>  <IC50>
400 to 1000 nM

$$$$
>  <compound>
CCc1cc(C(=O)NC)ccc1Nc1nc(OC2CCOCC2)c2c(-c3ccc4nc(C)oc4c3)c[nH]c2n1 [Example 435]

>  <IC50>
< 100 nM

$$$$
>  <compound>
COc1cc(C(=O)N(C)C)ccc1Nc1nc(OC)c2c(-c3ccnc(F)c3)c[nH]c2n1 [Example 412]

>  <IC50>
400 to 1000 nM

$$$$
>  <compound>
COc1nc(Nc2ccnn2C)nc2[nH]cc(-c3ccncc3)c12 [Example 401]

>  <IC50>
1000 to 10000 nM

$$$$
>  <compound>
Cc1nc2ccc(-c3c[nH]c4nc(Nc5ccc(C(=O)NC6COC6)cc5Cl)nc(OC5CCOCC5)c34)cc2o1 [Example 438]

>  <IC50>
< 100 nM

$$$$
>  <compound>
COc1cc(C(=O)N(C)C2COC2)ccc1Nc1nc(OC)c2c(-c3ccnc(F)c3)c[nH]c2n1 [Example 413]

>  <IC50>
100 to 400 nM

$$$$
>  <compound>
COc1nc(Nc2ccc(C(=O)N(C)C)cc2C)nc2[nH]cc(-c3ccc4nc(C)n(C)c4c3)c12 [Example 407]

>  <IC50>
100 to 400 nM

$$$$
>  <compound>
COc1cc(C(=O)N(C)C)ccc1Nc1nc(OC(C)C)c2c(-c3ccnc(F)c3)c[nH]c2n1 [Example 403]

>  <IC50>
< 100 nM

$$$$
>  <compound>
COc1cc(C(=O)NC2COC2)ccc1Nc1nc(OC)c2c(-c3cc(C)nc(Cl)c3)c[nH]c2n1 [Example 437]

>  <IC50>
< 100 nM

$$$$
>  <compound>
COc1cc(C(=O)N(C)C)ccc1Nc1nc(OC)c2c(-c3cc(C)nc(F)c3)c[nH]c2n1 [Example 418]

>  <IC50>
< 100 nM

$$$$

Give the reported IC50 for this compound. CNC(=O)c1ccc(-c2c[nH]c3nc(Nc4ccc(C(=O)NC)cc4Cl)nc(OC(C)C)c23)cc1 [Example 432]
< 100 nM

Provide IC50 value for the following compound: CNC(=O)c1ccc(Nc2nc(OC3CCC(C)(O)CC3)c3c(-c4ccc5nc(C)oc5c4)c[nH]c3n2)c(Cl)c1 (stereo not drawn) [Example 429]
< 100 nM

Could you please provide reported IC50 for COc1nc(Nc2ccc3[nH]ncc3c2C)nc2[nH]cc(-c3ccncc3)c12 [Example 414] ? Thanks!
1000 to 10000 nM

Give the reported IC50 for this compound. CNC(=O)c1ccc(-c2c[nH]c3nc(Nc4ccc(C(=O)NC)cc4Cl)nc(OC)c23)cc1 [Example 428]
< 100 nM

Output IC50 of COc1nc(Nc2ccc(C(=O)N(C)C)cc2C)nc2[nH]cc(-c3cc(C)nc(F)c3)c12 [Example 420]
< 100 nM

Provide only the value of recorded IC50 for COc1nc(Nc2ccc(C(=O)N(C)C3COC3)cc2C)nc2[nH]cc(-c3ccncc3)c12 [Example 406]
100 to 400 nM

Give reported IC50 value for Cc1cc(C(=O)N(C)C)ccc1Nc1nc(OC(C)C)c2c(-c3ccnc(F)c3)c[nH]c2n1 [Example 402]
< 100 nM

Give the value of IC50 reported for the following: COc1nc(Nc2ccc(C(=O)N(C)C)cc2C)nc2[nH]cc(-c3ccc4[nH]c(C)nc4c3)c12 [Example 399]
< 100 nM

Input CNC(=O)c1ccc(-c2c[nH]c3nc(Nc4ccc(C(=O)NC)cc4Cl)nc(O[C@@H]4CCOC4)c23)cc1 [Example 434] , output reported IC50.
< 100 nM

Item COc1cc(C(=O)NC2COC2)ccc1Nc1nc(OC)c2c(-c3cc(C)nc(F)c3)c[nH]c2n1 [Example 424] : provide IC50
100 to 400 nM

Determine its reported IC50: CNC(=O)c1ccc(-c2c[nH]c3nc(Nc4ccc(C(=O)NC)cc4Cl)nc(NC4CCOCC4)c23)cc1 [Example 433]
< 100 nM

Hello, please tell me recorded IC50 for this one: CNC(=O)c1ccc(Nc2nc(NC3CCOCC3)c3c(-c4ccc5nc(C)oc5c4)c[nH]c3n2)c(Cl)c1 [Example 430]
< 100 nM

For COc1cc(C(=O)NC2COC2)ccc1Nc1nc(OC)c2c(-c3ccc4[nH]c(C)nc4c3)c[nH]c2n1 [Example 404] , write its IC50.
100 to 400 nM

###

- Test system: Triple negative breast cancer cell line CAL51
- testName: Cell Titer Glo proliferation assay, CAL51
- Assay type: cell-based
- assaySetup: Homo sapiens, CAL-51; CAL51 cell proliferation, Cell Titer Glo; read-out: Act. Level
pIC50: −log10 of the molar value.
measuredMetric: pIC50

Reference set, count: 3
>  <recordSmiles>
COc1cc(C(=O)NC2COC2)ccc1Nc1nc(OC)c2c(-c3ccnc(C)c3)c[nH]c2n1

>  <measuredMetric>
pIC50

>  <result>
> 7.00

$$$$
>  <recordSmiles>
COc1cc(C(=O)NC2CN(C)C2)ccc1Nc1nc(O[C@H]2CCOC2)c2c(-c3ccc4nc(C)oc4c3)c[nH]c2n1

>  <measuredMetric>
pIC50

>  <result>
> 7.00

$$$$
>  <recordSmiles>
COc1cc(-c2c[nH]c3nc(Nc4ccc(C(=O)NC5COC5)cc4OC)nc(OC)c23)ccn1

>  <measuredMetric>
pIC50

>  <result>
> 7.00

$$$$

Could you now consider this next molecule?
Specify measured pIC50 for "CNC(=O)c1ccc(Nc2nc(OC3CCCC3)c3c(-c4cccc(C#N)c4)c[nH]c3n2)c(OC)c1" .
5.00 to 6.00

###

- Test system: Triple negative breast cancer cell line CAL51
- testName: Cell Titer Glo proliferation assay, CAL51
- Format: cell-based
- assaySetup: Homo sapiens, CAL-51; CAL51 cell proliferation, Cell Titer Glo; read-out: Act. Level
- Protocol: Cell Titer Glo Proliferation Assay. Triple negative breast cancer cell line CAL51 was purchased from DSMZ. […] Allcell lines were maintained in growth media consisting of 90% high glucose Dulbecco's Modified Eagle Medium or RPMI1640 (Invitrogen), 10% fetal bovine serum (Hyclone), and 2 mM L-glutamine (Invitrogen). […] After 10 minutes incubation, the luminescence signal was detected with Envision microplate reader (Perkin Elmer).
measuredMetric: IC50

Some compounds with recorded IC50:
>  <recordSmiles>
CNC(=O)c1ccc(-c2c[nH]c3nc(Nc4ccc(C(=O)NC5COC5)cc4OC)nc(OC4COC4)c23)cc1

>  <testedOn>
Triple negative breast cancer cell line CAL51

>  <result>
100 to 400 nM

$$$$
>  <recordSmiles>
COc1cc(C(=O)NC2COC2)ccc1Nc1nc(OC2CCC2)c2c(-c3ccc(-c4ncc[nH]4)cc3)c[nH]c2n1

>  <testedOn>
Triple negative breast cancer cell line CAL51

>  <result>
< 100 nM

$$$$
>  <recordSmiles>
CNC(=O)c1ccc(Nc2nc(OC3CCCC3)c3c(-c4ccc(F)cc4C)c[nH]c3n2)c(OC)c1

>  <testedOn>
Triple negative breast cancer cell line CAL51

>  <result>
1000 to 10000 nM

$$$$
>  <recordSmiles>
COc1cc(C(=O)NC2CN(C)C2)ccc1Nc1nc(OC(C)(C)C)c2c(-c3ccc4nc(C)oc4c3)c[nH]c2n1

>  <testedOn>
Triple negative breast cancer cell line CAL51

>  <result>
< 100 nM

$$$$
>  <recordSmiles>
COc1cc(C(=O)NC2COC2)ccc1Nc1nc(OC2CC2)c2c(-c3ccc4nc(C)oc4c3)c[nH]c2n1

>  <testedOn>
Triple negative breast cancer cell line CAL51

>  <result>
100 to 400 nM

$$$$

Provide only the value of recorded IC50 for "COCCOc1nc(Nc2ccc(C(=O)NC3COC3)cc2OC)nc2[nH]cc(-c3ccc4nc(C)oc4c3)c12"
< 100 nM

Give me measured IC50, please, for this compound: "CNC(=O)c1ccc(Nc2nc(OC3CCOCC3)c3c(-c4cncc(OC)c4)c[nH]c3n2)c(OC)c1"
100 to 400 nM

Answer with the recorded IC50 of "CCn1ncc(Nc2nc(OC3CCCC3)c3c(-c4ccc5nc(C)oc5c4)c[nH]c3n2)c1Cl" only.
100 to 400 nM

Report IC50 for "COc1cc(C(=O)N2C[C@H]2CO)ccc1Nc1nc(OC2CCCC2)c2c(-c3ccc4nc(C)oc4c3)c[nH]c2n1"
100 to 400 nM

Fill in reported IC50 for this entry: "COc1nc(Nc2ccc(C(=O)N(C)C)cc2C)nc2[nH]cc(-c3ccc(-c4ncc[nH]4)cc3)c12"
< 100 nM
